# Test system: NCI-H23 lung
# ASSAY TEXT: NCI-60 one-dose screen, 48 h
# CONDITIONS: 10 µM unless noted
The panel holds about 83,000 compounds, 20% with a hit somewhere; the sample as a whole holds those more often. The source made the active and inactive calls. Rule for the calls: active = growth percent below 10; inactive = the rest.
API: response.call in active, inactive

>>> print(df.to_string())
                                   compound  assigned_label
0  Oc1ccc(CSc2nnc(-c3ccc(Cl)cc3)o2)c2cccnc12        inactive
1  CCN1C(=O)N(CC)C2SC(N/N=C/c3ccccc3F)=NC21 (centres undefined)        inactive

I'd appreciate the recorded outcome for CC(C)(C)CC(C)(C)n1nnnc1C(Nc1ccccc1)c1cc2cccc3ccc4cccc1c4c32 (centres undefined) from this test.
inactive

Can you look up the reported call for CC(C)=CCc1c(O)c(CC=C(C)C)c2c(c1O)C(=O)C1=C[C@@H]3C[C@H]4C(C)(C)O[C@@](C/C=C(\C)C(=O)O)(C3=O)[C@@]14O2 for me?
active

What was the test verdict on NC(=S)N/N=C(/C=C/c1cn(-c2ccccc2)nc1-c1ccc(Cl)cc1)c1cc2ccccc2oc1=O ?
inactive

Please let me know the test result on file for COc1cc2c3c(n(CCCN4CCCCC4)c(=O)c2cc1OC)-c1cc2c(cc1C3=O)OCO2 .
active

// param item: CC(=O)Nc1nc2c(s1)C1=CC[C@H]3[C@@H]4CC[C@H](C(C)=O)[C@@]4(C)CC[C@@H]3[C@@]1(C)CC2 ; yields the recorded call
inactive

Name the outcome recorded for COc1ccc([C@H]2[C@H](O)C(=O)N2c2cc(OC)c(OC)c(OC)c2)cc1Cl in the assay.
inactive

Please state the recorded outcome for this compound: C=C(C)C(=O)O[C@H]1C[C@@]2(C)OC(=CC2=O)[C@H](C)[C@H](O)[C@H]2OC(=O)C(=C)[C@@H]21
inactive

* * *

# System: HOP-62 NSCLC
# ASSAY TEXT: NCI-60 one-dose screen, 48 h (100 = growth as untreated, 0 = no growth, -100 = all killed)
# CONDITIONS: 10 µM unless noted
The panel holds about 83,000 compounds, 20% with a hit somewhere; the sample as a whole holds those more often.
So I've got a bunch of compounds here, and I need their growth values.
Answers are plain numbers, in %.

COMPOUND	growth [%]
Cc1ccc(NC(=O)c2cccc(CN3CCN(C)CC3)c2)cc1Oc1ccc(-c2[nH]nc3ncnc(N)c23)cc1	80.9

For every item in the list below, what is its measured growth?
1. C(=C(\C1=NCCN1)n1cnc2ccccc21)/c1ccc2ccccc2c1
2. NC(=O)C(=Cc1ccc(Cl)cc1)C(N)=O

79.4
95.9

Parameters: items (list). Returns: growth for each item.
1. NC(N)=NS(=O)(=O)c1ccc(N=NC2C(=O)NN(c3ccccc3)C2=O)cc1 (centres undefined)
2. Nc1nc(-c2cccc([N+](=O)[O-])c2)c(N=Nc2ccccc2Cl)s1
3. CCN1CCN(c2cc(C(=O)Nc3nc4ccc(Oc5ccnc(C(=O)NC)c5)cc4s3)cc(C(F)(F)F)c2)CC1
4. COc1ccc(-c2cc(-c3cccc4ccccc34)n3c(n2)nc2ccccc23)cc1OC
5. COc1ccc(-c2ccnc3c(C#N)c(Nc4ccccc4)nn23)cc1OC
6. O=C(O)c1ccc(-n2cc(CNc3ccc(F)cc3)c(-c3ccc(C(F)(F)F)cc3)n2)cc1
7. O=C(Cn1cc(CN2C(=O)c3ccc([N+](=O)[O-])cc3C2=O)nn1)Nc1ccc(F)cc1Cl

110
56.1
104
-0.816
86.5
81.3
109

Hi! Can you tell me growth for each of these compounds?
1. Cc1cc(Cl)cc(NS(=O)(=O)c2ccc(-c3cnc(C4CC4)o3)cc2)c1
2. O=C(NNc1nc2cc(F)c(F)cc2n2cccc12)c1ncccn1
3. CC1(C)CC[C@]2(C(=O)O)CC[C@]3(C)C(=CCC4[C@@]5(C)C[C@@H](O)[C@@H]6OC(c7ccccc7O)OC[C@@]6(C)C5CC[C@]43C)C2C1 (some centres undefined)
4. Cc1cc(=O)n2nc(-c3cn(C)c4ccc(Cl)cc34)sc2n1

1. 41.7
2. 19.9
3. 45.6
4. 85.7
